These entries and their values trace back to patent US20250295815A1.

# reported abs max B; entries follow
Test: Brightness of hydroporphyrin monomers vs. porphyrin-hydroporphyrin dyads at 405 nm excitation
Assay type: physicochemical
Conditions: toluene, room temperature
Experimental: Brightness was calculated using an excitation wavelength of 405 nm for a hydroporphyrin monomer having an emission wavelength of approximately 660, 680, 715, or 800 nm and for a fluorescent compound including a porphyrin and a hydroporphyrin structurally similar to the hydroporphyrin monomer. Brightness was calculated as the product of the molar absorption coefficient at 405 nm and the fluorescence quantum yield in toluene at room temperature. […]
Numbers only here, please. The scale is nm.

Example compounds with recorded abs max B:
COC(=O)c1ccc(-c2c3nc(cc4[nH]c(cc5nc(cc6[nH]c2cc6C#Cc2ccc(-c6c7nc(cc8ccc(cc9nc(cc%10ccc6[nH]%10)C=C9)[nH]8)C=C7)cc2)CC5(C)C)cc4C#Cc2ccc(-c4c5nc(cc6ccc(cc7nc(cc8ccc4[nH]8)C=C7)[nH]6)C=C5)cc2)C=C3)cc1 [Dyad P1-C6] ... 406
COC(=O)c1c(C#Cc2ccc(-c3c4nc(cc5ccc(cc6nc(cc7ccc3[nH]7)C=C6)[nH]5)C=C4)cc2)c2cc3nc(c(OC)c4[nH]c(cc5nc(cc1[nH]2)CC5(C)C)c(C#Cc1ccc(-c2c5nc(cc6ccc(cc7nc(cc8ccc2[nH]8)C=C7)[nH]6)C=C5)cc1)c4C(=O)OC)CC3(C)C [Dyad P1-BC2] ... 405
COC(=O)c1ccc(-c2c3nc(cc4[nH]c(cc5nc(cc6[nH]c2cc6-c2ccc(CNC(=O)c6ccc(C7=C8C=CC(=N8)C=c8ccc9[n]8[Zn][n]8c(ccc87)C=C7C=CC(=N7)C=9)cc6)cc2)CC5(C)C)cc4-c2ccccc2)C=C3)cc1 [P2-C1, methyl ester] ... 407

query: Which abs max B value is on record for "COc1c2nc(cc3ccc([nH]3)c(-c3ccc(-c4c5nc(cc6ccc(cc7nc(cc8ccc4[nH]8)C=C7)[nH]6)C=C5)cc3)c3nc(cc4ccc1[nH]4)C(C)(C)C3)C(C)(C)C2" ?
result: 407
